Here the recorded β (β-factor, relative potency per ligand) is given for each entry.
Target: AFL lectin (Aspergillus fumigatus)
Test: biochemical
Assay type: binding
Settings: β=(Kd)monovalent/[(Kd)multivalent×Valency], calculated from methylfucoside
Write the number on its own, no unit after it.

Enquiry: Param readout = β (β-factor, relative potency per ligand); param system = AFL lectin (Aspergillus fumigatus); param query = C[C@@H]1O[C@@H](OCc2cn(CCOCCOCCOCCOCCOCCOCCOCCOCCOCCOCCOCCn3cc(CO[C@@H]4O[C@@H](C)[C@@H](O)[C@@H](O)[C@@H]4O)nn3)nn2)[C@@H](O)[C@H](O)[C@@H]1O ; response: value
Return: 470

Enquiry: Param readout = β (β-factor, relative potency per ligand); param system = AFL lectin (Aspergillus fumigatus); param query = CC1OC(OCCOCCOCCOCCOCc2cn(CC3OC4OC5C(Cn6cc(COCCOCCOCCOCCOC7OC(C)C(O)C(O)C7O)nn6)OC(OC6C(Cn7cc(COCCOCCOCCOCCOC8OC(C)C(O)C(O)C8O)nn7)OC(OC7C(Cn8cc(COCCOCCOCCOCCOC9OC(C)C(O)C(O)C9O)nn8)OC(OC8C(Cn9cc(COCCOCCOCCOCCOC%10OC(C)C(O)C(O)C%10O)nn9)OC(OC9C(Cn%10cc(COCCOCCOCCOCCOC%11OC(C)C(O)C(O)C%11O)nn%10)OC(OC3C(O)C4O)C(O)C9O)C(O)C8O)C(O)C7O)C(O)C6O)C(O)C5O)nn2)C(O)C(O)C1O (stereo not shown) ; response: value
Return: 479

Enquiry: Param readout = β (β-factor, relative potency per ligand); param system = AFL lectin (Aspergillus fumigatus); param query = C[C@@H]1O[C@@H](OCc2cn(CCOCCOCCOCCO)nn2)[C@@H](O)[C@H](O)[C@@H]1O [Compound 33, reference compound] ; response: value
Return: 3

Turning now to a further record.
Enquiry: Param readout = β (β-factor, relative potency per ligand); param system = AFL lectin (Aspergillus fumigatus); param query = C[C@@H]1O[C@@H](OCc2cn(CCOCCOCCOCCn3cc(CO[C@@H]4O[C@@H](C)[C@@H](O)[C@@H](O)[C@@H]4O)nn3)nn2)[C@@H](O)[C@H](O)[C@@H]1O ; response: value
Return: 68

====

Biological target: AFL lectin (Aspergillus fumigatus)
Assay: biochemical
Format: binding
Conditions: Table 2, second batch of purified AFL protein
PARAMETER: N (stoichiometry)
Write the number on its own, no unit after it.

Enquiry: // N (stoichiometry) lookup, key: CC1OC(OCCOCCOCCOCCOCc2cn(CC3OC4OC5C(Cn6cc(COCCOCCOCCOCCOC7OC(C)C(O)C(O)C7O)nn6)OC(OC6C(Cn7cc(COCCOCCOCCOCCOC8OC(C)C(O)C(O)C8O)nn7)OC(OC7C(Cn8cc(COCCOCCOCCOCCOC9OC(C)C(O)C(O)C9O)nn8)OC(OC8C(Cn9cc(COCCOCCOCCOCCOC%10OC(C)C(O)C(O)C%10O)nn9)OC(OC9C(Cn%10cc(COCCOCCOCCOCCOC%11OC(C)C(O)C(O)C%11O)nn%10)OC(OC3C(O)C4O)C(O)C9O)C(O)C8O)C(O)C7O)C(O)C6O)C(O)C5O)nn2)C(O)C(O)C1O (stereo not shown)
Return: 0.95

====

Molecular target: AFL lectin (Aspergillus fumigatus, UniProt Q4WW81)
Sequence (Q4WW81 whole entry): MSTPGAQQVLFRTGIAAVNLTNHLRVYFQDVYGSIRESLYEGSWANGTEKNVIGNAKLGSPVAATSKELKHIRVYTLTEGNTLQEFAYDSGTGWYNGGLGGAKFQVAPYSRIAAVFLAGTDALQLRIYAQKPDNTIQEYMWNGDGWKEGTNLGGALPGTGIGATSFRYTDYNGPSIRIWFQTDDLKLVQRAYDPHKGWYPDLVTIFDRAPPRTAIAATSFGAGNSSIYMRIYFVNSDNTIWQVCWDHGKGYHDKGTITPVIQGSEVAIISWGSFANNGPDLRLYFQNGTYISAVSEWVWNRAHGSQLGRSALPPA
Assay: biochemical
Assay type: binding
Conditions: Table 1, first AFL batch
Here the recorded −ΔH is given for each entry.
Please respond with the number in kcal/mol and leave the unit unwritten.

Enquiry: // −ΔH lookup, key: C[C@@H]1O[C@@H](OCc2cn(CCOCCOCCOCCn3cc(CO[C@@H]4O[C@@H](C)[C@@H](O)[C@@H](O)[C@@H]4O)nn3)nn2)[C@@H](O)[C@H](O)[C@@H]1O
Return: 18.4

Enquiry: // −ΔH lookup, key: C[C@@H]1O[C@@H](OCc2cn(CCOCCOCCOCCO)nn2)[C@@H](O)[C@H](O)[C@@H]1O [Compound 33, reference compound]
Return: 14.3

Turning now to a further record.
Enquiry: // −ΔH lookup, key: CO[C@@H]1O[C@@H](C)[C@@H](O)[C@@H](O)[C@@H]1O [αMeFuc, methylfucoside, reference compound]
Return: 11.5

====

Target: AFL lectin (Aspergillus fumigatus, UniProt Q4WW81)
Assay: biochemical
Format: binding
Details: Table 1, first AFL batch
Here the recorded −TΔS is given for each entry.
Please respond with the number in kcal/mol and leave the unit unwritten.

Consider the reported −TΔS for these compounds:
Enquiry: // −TΔS lookup, key: C[C@@H]1O[C@@H](OCc2cn(CCOCCOCCOCCn3cc(CO[C@@H]4O[C@@H](C)[C@@H](O)[C@@H](O)[C@@H]4O)nn3)nn2)[C@@H](O)[C@H](O)[C@@H]1O [Compound 24]
Return: 11

Enquiry: // −TΔS lookup, key: CC1OC(OCCOCCOCCOCCOCc2cn(CC3OC4OC5C(Cn6cc(COCCOCCOCCOCCOC7OC(C)C(O)C(O)C7O)nn6)OC(OC6C(Cn7cc(COCCOCCOCCOCCOC8OC(C)C(O)C(O)C8O)nn7)OC(OC7C(Cn8cc(COCCOCCOCCOCCOC9OC(C)C(O)C(O)C9O)nn8)OC(OC8C(Cn9cc(COCCOCCOCCOCCOC%10OC(C)C(O)C(O)C%10O)nn9)OC(OC9C(Cn%10cc(COCCOCCOCCOCCOC%11OC(C)C(O)C(O)C%11O)nn%10)OC(OC3C(O)C4O)C(O)C9O)C(O)C8O)C(O)C7O)C(O)C6O)C(O)C5O)nn2)C(O)C(O)C1O (stereo not drawn) [Compound 30]
Return: 43.3

Enquiry: // −TΔS lookup, key: C[C@@H]1O[C@@H](OCc2cn(CCOCCOCCOCCOCCOCCOCCOCCOCCOCCOCCOCCn3cc(CO[C@@H]4O[C@@H](C)[C@@H](O)[C@@H](O)[C@@H]4O)nn3)nn2)[C@@H](O)[C@H](O)[C@@H]1O [Compound 26]
Return: 8.6

Enquiry: // −TΔS lookup, key: CO[C@@H]1O[C@@H](C)[C@@H](O)[C@@H](O)[C@@H]1O [αMeFuc, methylfucoside, reference compound]
Return: 6.41

New cases:
Enquiry: // −TΔS lookup, key: C[C@@H]1O[C@@H](OCc2cn(CCOCCOCCOCCO)nn2)[C@@H](O)[C@H](O)[C@@H]1O [Compound 33, reference compound]
Return: 9.08

Enquiry: // −TΔS lookup, key: CC1OC(OCCOCCOCc2cn(CC3OC4OC5C(Cn6cc(COCCOCCOC7OC(C)C(O)C(O)C7O)nn6)OC(OC6C(Cn7cc(COCCOCCOC8OC(C)C(O)C(O)C8O)nn7)OC(OC7C(Cn8cc(COCCOCCOC9OC(C)C(O)C(O)C9O)nn8)OC(OC8C(Cn9cc(COCCOCCOC%10OC(C)C(O)C(O)C%10O)nn9)OC(OC9C(Cn%10cc(COCCOCCOC%11OC(C)C(O)C(O)C%11O)nn%10)OC(OC3C(O)C4O)C(O)C9O)C(O)C8O)C(O)C7O)C(O)C6O)C(O)C5O)nn2)C(O)C(O)C1O (stereo not drawn) [Compound 29]
Return: 30

====

Here the recorded −ΔH is given for each entry.
Target: UniProt:Q4WW81
Assay: biochemical
Type: binding
Details: Table 2, second batch of purified AFL protein
Please respond with the number in kJ/mol and leave the unit unwritten.

Consider the reported −ΔH for these compounds:
Enquiry: Param readout = −ΔH; param system = UniProt:Q4WW81; param query = CC1OC(OCCOCCOCc2cn(CC3OC4OC5C(Cn6cc(COCCOCCOC7OC(C)C(O)C(O)C7O)nn6)OC(OC6C(Cn7cc(COCCOCCOC8OC(C)C(O)C(O)C8O)nn7)OC(OC7C(Cn8cc(COCCOCCOC9OC(C)C(O)C(O)C9O)nn8)OC(OC8C(Cn9cc(COCCOCCOC%10OC(C)C(O)C(O)C%10O)nn9)OC(OC9C(Cn%10cc(COCCOCCOC%11OC(C)C(O)C(O)C%11O)nn%10)OC(OC3C(O)C4O)C(O)C9O)C(O)C8O)C(O)C7O)C(O)C6O)C(O)C5O)nn2)C(O)C(O)C1O (stereo not shown) [Compound 29] ; response: value
Return: 171.8

Enquiry: Param readout = −ΔH; param system = UniProt:Q4WW81; param query = CC1OC(OCCOCCOCCOCCOCc2cn(CC3OC4OC5C(Cn6cc(COCCOCCOCCOCCOC7OC(C)C(O)C(O)C7O)nn6)OC(OC6C(Cn7cc(COCCOCCOCCOCCOC8OC(C)C(O)C(O)C8O)nn7)OC(OC7C(Cn8cc(COCCOCCOCCOCCOC9OC(C)C(O)C(O)C9O)nn8)OC(OC8C(Cn9cc(COCCOCCOCCOCCOC%10OC(C)C(O)C(O)C%10O)nn9)OC(OC9C(Cn%10cc(COCCOCCOCCOCCOC%11OC(C)C(O)C(O)C%11O)nn%10)OC(OC3C(O)C4O)C(O)C9O)C(O)C8O)C(O)C7O)C(O)C6O)C(O)C5O)nn2)C(O)C(O)C1O (stereo not shown) [Compound 30] ; response: value
Return: 208.9

Enquiry: Param readout = −ΔH; param system = UniProt:Q4WW81; param query = CO[C@@H]1O[C@@H](C)[C@@H](O)[C@@H](O)[C@@H]1O [αMeFuc, methylfucoside, reference compound] ; response: value
Return: 64.3

Turning now to a further record.
Enquiry: Param readout = −ΔH; param system = UniProt:Q4WW81; param query = CC1OC(OCc2cn(CC3OC4OC5C(Cn6cc(COC7OC(C)C(O)C(O)C7O)nn6)OC(OC6C(Cn7cc(COC8OC(C)C(O)C(O)C8O)nn7)OC(OC7C(Cn8cc(COC9OC(C)C(O)C(O)C9O)nn8)OC(OC8C(Cn9cc(COC%10OC(C)C(O)C(O)C%10O)nn9)OC(OC9C(Cn%10cc(COC%11OC(C)C(O)C(O)C%11O)nn%10)OC(OC3C(O)C4O)C(O)C9O)C(O)C8O)C(O)C7O)C(O)C6O)C(O)C5O)nn2)C(O)C(O)C1O (stereo not shown) [Compound 44] ; response: value
Return: 122.9
